- Tested on: 994946-033-R-J1-PDC complex spheroid viability;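 further: spheroids exposed to drugs for 7 days; 100% = DMSO vehicle treated spheroids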
- MEASUREMENT NOTES: Anticancer human tumor 994946-033-R-J1-PDC patient-derived melanoma cell line growth inhibition [POLQ]
- TEST PARAMETERS: second compound 10 µM; first compound 0.00316 µM; stronger effect = lower value

COMPOUND	viability, T/C (%)
CC[C@@]1(O)C(=O)OCc2c1cc1n(c2=O)Cc2cc3c(CN(C)C)c(O)ccc3nc2-1 + Cc1cccc(N(C)C(=O)C2C(O)CCN2c2nc(C)cc(C(F)(F)F)c2C#N)c1	107
CC[C@@]1(O)C(=O)OCc2c1cc1n(c2=O)Cc2cc3c(CN(C)C)c(O)ccc3nc2-1 + COC1C(OC(N)=O)C(O)C(Oc2ccc3c(O)c(NC(=O)c4ccc(O)c(CC=C(C)C)c4)c(=O)oc3c2C)OC1(C)C	85.4
Cn1ncnc1[C@H]1c2n[nH]c(=O)c3cc(F)cc(c23)N[C@@H]1c1ccc(F)cc1 + Cc1cccc(N(C)C(=O)C2C(O)CCN2c2nc(C)cc(C(F)(F)F)c2C#N)c1	95.7
C=CCn1c(=O)c2cnc(Nc3ccc(N4CCN(C)CC4)cc3)nc2n1-c1cccc(C(C)(C)O)n1 + Nc1ccc(C#CCN(C(=O)Cc2ncc(C(F)(F)F)cc2C(F)(F)F)c2ccc(F)cc2)nn1	106
CC[C@@]1(O)C(=O)OCc2c1cc1n(c2=O)Cc2cc3c(CN(C)C)c(O)ccc3nc2-1 + Nc1ccc(C#CCN(C(=O)Cc2ncc(C(F)(F)F)cc2C(F)(F)F)c2ccc(F)cc2)nn1	98.5
